biological target: PI3K beta (Homo sapiens); construct: His (N); host or cells: SF9 cells (baculovirus); assay: Human PI3K beta enzyme assay (HTRF); assay type: biochemical; details: concentration not given; read-out: p110 beta Percent Inhibition
Sequence (P42338 whole entry): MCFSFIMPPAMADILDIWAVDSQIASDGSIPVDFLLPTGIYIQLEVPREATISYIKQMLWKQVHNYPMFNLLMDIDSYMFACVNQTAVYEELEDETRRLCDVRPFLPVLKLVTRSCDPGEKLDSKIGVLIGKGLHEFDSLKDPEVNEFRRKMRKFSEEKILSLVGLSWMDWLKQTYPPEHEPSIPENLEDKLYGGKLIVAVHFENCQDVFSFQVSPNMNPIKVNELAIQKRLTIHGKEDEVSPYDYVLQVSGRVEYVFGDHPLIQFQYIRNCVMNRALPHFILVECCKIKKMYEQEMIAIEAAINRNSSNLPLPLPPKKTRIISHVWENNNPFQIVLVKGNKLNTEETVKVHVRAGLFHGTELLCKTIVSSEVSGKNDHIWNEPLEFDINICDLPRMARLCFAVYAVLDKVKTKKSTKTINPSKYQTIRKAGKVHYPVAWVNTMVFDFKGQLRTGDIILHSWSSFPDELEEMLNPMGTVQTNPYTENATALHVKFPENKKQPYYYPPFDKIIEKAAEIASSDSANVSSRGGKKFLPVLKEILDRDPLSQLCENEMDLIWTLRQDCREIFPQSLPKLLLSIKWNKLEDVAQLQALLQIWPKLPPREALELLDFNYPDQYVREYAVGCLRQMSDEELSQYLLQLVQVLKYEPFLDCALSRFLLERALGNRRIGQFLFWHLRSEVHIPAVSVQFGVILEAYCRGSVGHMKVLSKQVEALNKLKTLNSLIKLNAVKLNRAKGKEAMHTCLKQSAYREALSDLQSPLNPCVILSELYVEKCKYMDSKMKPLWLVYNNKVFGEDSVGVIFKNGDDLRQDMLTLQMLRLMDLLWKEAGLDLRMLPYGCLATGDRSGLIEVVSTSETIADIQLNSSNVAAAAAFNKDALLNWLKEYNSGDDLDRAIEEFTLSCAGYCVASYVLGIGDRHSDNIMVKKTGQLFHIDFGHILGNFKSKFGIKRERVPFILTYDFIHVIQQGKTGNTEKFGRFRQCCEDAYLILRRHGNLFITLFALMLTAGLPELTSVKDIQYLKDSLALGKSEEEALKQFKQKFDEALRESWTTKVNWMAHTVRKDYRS
Sequence (P27986 whole entry partner): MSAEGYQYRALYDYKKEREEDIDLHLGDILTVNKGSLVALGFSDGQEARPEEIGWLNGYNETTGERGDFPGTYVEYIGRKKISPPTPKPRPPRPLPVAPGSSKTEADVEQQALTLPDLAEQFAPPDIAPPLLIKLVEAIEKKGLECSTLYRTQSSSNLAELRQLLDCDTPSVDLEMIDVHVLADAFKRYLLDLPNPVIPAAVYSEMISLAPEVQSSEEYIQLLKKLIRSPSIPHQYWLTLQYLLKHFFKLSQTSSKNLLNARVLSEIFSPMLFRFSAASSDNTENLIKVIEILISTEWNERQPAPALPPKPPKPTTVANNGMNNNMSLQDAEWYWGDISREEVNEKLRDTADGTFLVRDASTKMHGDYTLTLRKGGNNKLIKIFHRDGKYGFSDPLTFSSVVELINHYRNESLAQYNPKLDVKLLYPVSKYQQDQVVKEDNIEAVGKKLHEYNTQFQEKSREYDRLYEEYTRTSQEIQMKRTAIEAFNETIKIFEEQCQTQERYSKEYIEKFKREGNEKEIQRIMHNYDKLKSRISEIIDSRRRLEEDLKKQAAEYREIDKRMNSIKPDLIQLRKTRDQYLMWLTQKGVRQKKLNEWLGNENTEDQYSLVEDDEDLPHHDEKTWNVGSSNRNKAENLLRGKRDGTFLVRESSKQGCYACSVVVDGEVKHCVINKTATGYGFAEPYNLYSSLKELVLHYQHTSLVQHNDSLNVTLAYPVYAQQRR
measurement_label: inhibition at 1.1 µM (%)
# value in %; strip the unit string

Solved entries (count: 8):
>>> assay_result("N#Cc1c(N2CCOCC2)sc(C(=O)O)c1Cc1cc2ccccc2cc1F [Compound 295]")
111
>>> assay_result("N#Cc1c(N2CCOCC2)sc(C(N)=O)c1C(F)(F)c1ccc2ccccc2c1 [Compound 307]")
84
>>> assay_result("OC(c1cc(Br)cs1)c1cc(-c2ccncc2)sc1-c1nnc[nH]1 (stereo not shown) [Compound 233]")
97
>>> assay_result("N#Cc1c(N2CCOCC2)sc(C(=O)O)c1C(F)c1ccc2ccccc2c1 (stereo not shown) [Compound 345]")
105
>>> assay_result("N#Cc1c(N2CCOCC2)sc(-c2nnn[nH]2)c1C(F)(F)c1ccc2ccccc2c1 [Compound 349]")
108
>>> assay_result("COc1cccc(C(O)c2cc(-c3ccncc3)sc2-c2nnc[nH]2)c1 (stereo not shown) [Compound 253]")
64
>>> assay_result("NCc1c[nH]c(-c2sc(-c3ccncc3)nc2Cc2ccc(Cl)cc2)n1 [Compound 255]")
55
>>> assay_result("N#Cc1c(N2CCOCC2)sc(C(=O)O)c1Cc1cc(F)c(Cl)cc1F [Compound 300]")
105

Respond only with inhibition at 1.1 µM recorded for N#Cc1c(N2CCOCC2)sc(C(=O)O)c1Cc1ccc2ccccc2c1F [Compound 293]
108

Respond only with inhibition at 1.1 µM recorded for N#Cc1c(N2CCOCC2)sc(C(=O)O)c1Cc1ccc2c(c1)CCCC2 [Compound 305]
106

The reported numbers originate from patent US8796271B2.
